Provide the recorded IC50 for the entries that follow.
- ASSAY SYSTEM: human TLR7 (Homo sapiens (Human), UniProt Q9NYK1)
- Sequence (Q9NYK1 27-1049): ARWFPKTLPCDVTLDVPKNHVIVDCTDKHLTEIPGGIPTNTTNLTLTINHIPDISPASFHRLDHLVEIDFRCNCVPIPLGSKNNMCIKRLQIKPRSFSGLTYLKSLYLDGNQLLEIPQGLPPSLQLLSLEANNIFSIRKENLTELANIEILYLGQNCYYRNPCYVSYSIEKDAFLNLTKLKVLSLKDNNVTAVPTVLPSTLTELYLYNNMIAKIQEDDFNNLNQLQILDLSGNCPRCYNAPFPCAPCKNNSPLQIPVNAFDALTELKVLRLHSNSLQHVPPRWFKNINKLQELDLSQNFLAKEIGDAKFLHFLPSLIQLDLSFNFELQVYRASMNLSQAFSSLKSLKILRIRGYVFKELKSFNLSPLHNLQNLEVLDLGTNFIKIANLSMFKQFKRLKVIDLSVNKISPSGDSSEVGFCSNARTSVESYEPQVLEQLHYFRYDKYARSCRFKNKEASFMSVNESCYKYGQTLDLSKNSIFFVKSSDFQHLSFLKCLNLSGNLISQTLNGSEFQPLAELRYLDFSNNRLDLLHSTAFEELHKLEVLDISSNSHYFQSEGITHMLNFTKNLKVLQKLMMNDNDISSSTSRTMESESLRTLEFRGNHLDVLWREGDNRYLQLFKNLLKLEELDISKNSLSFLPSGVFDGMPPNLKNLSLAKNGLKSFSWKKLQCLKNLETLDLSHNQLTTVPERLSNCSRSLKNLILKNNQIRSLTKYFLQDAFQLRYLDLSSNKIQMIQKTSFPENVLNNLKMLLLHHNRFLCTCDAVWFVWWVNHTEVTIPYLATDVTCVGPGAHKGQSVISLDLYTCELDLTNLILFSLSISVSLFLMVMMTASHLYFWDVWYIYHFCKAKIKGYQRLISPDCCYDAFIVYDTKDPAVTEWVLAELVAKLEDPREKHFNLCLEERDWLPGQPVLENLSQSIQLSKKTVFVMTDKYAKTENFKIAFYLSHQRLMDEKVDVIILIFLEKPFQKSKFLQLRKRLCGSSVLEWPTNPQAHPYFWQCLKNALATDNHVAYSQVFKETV
- PROTOCOL DESCRIPTION: TLR7 inhibition reporter assay (HEK-Blue, SEAP)
- STATED CONDITIONS: HEK-Blue cells overexpressing human TLR7, gardiquimod 7.5 μM stimulation
Please give a number only; it is taken to be in µM.

[ask] Give reported IC50 value for COc1ccc(-c2[nH]c3ccc(-c4ccc5c(c4)NCCC5)cc3c2C(C)C)cc1OC [Example 161]
[reply] 2.93

[ask] Tell me its IC50 given Cc1cc(-c2[nH]c3ccc(-c4nnc(Cc5nnn[nH]5)o4)cc3c2C(C)C)ccn1 [Example 76] as the entry.
[reply] 1.9

[ask] Tell me IC50 reported for CC(C)c1c(-c2ccnc3[nH]ncc23)[nH]c2ccc(-c3cccc4cnccc34)cc12 [Example 470]
[reply] 2.59

* * *

- ASSAY SYSTEM: human TLR9 (Homo sapiens (Human))
- Sequence (Q9NR96 26-1032): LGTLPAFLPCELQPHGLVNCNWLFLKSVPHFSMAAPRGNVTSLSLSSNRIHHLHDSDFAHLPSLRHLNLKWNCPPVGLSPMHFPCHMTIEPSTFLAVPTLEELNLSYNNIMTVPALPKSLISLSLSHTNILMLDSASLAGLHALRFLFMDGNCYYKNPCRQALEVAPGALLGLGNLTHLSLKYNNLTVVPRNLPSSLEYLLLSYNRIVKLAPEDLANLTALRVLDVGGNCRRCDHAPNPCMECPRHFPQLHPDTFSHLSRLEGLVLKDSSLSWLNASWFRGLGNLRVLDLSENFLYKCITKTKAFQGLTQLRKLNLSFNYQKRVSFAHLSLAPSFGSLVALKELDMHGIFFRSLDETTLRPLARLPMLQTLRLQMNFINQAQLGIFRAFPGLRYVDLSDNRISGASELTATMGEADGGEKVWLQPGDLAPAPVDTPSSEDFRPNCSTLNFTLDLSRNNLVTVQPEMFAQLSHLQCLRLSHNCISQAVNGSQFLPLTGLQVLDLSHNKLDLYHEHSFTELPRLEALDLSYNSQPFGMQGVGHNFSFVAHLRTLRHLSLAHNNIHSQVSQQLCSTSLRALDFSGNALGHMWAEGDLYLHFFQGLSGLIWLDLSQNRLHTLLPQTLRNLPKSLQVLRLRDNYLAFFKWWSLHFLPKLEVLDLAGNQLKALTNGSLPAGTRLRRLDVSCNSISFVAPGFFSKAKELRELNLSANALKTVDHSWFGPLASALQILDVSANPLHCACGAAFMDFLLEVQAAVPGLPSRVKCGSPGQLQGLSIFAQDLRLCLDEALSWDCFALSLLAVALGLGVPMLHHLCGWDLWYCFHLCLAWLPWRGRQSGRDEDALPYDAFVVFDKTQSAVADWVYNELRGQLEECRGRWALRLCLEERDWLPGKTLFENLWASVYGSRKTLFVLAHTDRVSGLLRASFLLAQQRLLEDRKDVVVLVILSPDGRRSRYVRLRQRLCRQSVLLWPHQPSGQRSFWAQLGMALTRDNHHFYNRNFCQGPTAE
- PROTOCOL DESCRIPTION: TLR9 inhibition reporter assay (HEK-Blue, SEAP)
- STATED CONDITIONS: HEK-Blue cells overexpressing human TLR9, ODN2006 5 nM stimulation
pIC50: −log10 of the molar value.
Label TRUE for high-side pIC50 (at or above 6) and FALSE for low-side pIC50 (below it).

[ask] Identify whether the reported pIC50 of the following molecule is 6 or greater: Cc1cc(-c2[nH]c3ccc(-c4nnc(CN5CCNCC5)o4)cc3c2C(C)C)ccn1
[reply] TRUE

[ask] State whether the measured pIC50 reaches 6, counting equality as reaching it, for CC(=O)Nc1ccc(-c2ccc3[nH]c(-c4ccnc(C)c4)c(C(C)C)c3c2)cn1
[reply] FALSE

[ask] Confirm if pIC50 reported for the molecule Cc1cc(-c2[nH]c3ccc(-c4nccs4)cc3c2C(C)C)ccn1 is 6 or above.
[reply] FALSE

[ask] pIC50 >= 6 for Cc1cc(-c2[nH]c3ccc(-c4nnc(C5CCCN(C)C5)o4)cc3c2C(C)C)ccn1 (stereo not drawn) [Example 169] ?
[reply] TRUE

[ask] Tell me whether pIC50 is at least 6 here: COc1ccc(-c2[nH]c3ccc(-c4ccc(NC5CCN(C(C)C)CC5)cc4)cc3c2C(C)C)cc1OC
[reply] FALSE

[ask] Is reported pIC50 greater than or equal to 6 here: CC(C)c1c(-c2ccnc3[nH]ncc23)[nH]c2ccc(-c3c[nH]nc3C(F)(F)F)cc12
[reply] FALSE

[ask] Please tell me: is the molecule COc1ccc(-c2[nH]c3ccc(-c4cccc(C(=O)N5CCCN(C)CC5)c4)cc3c2C(C)C)cc1OC at or over 6 in terms of pIC50?
[reply] FALSE

[ask] Determine whether this molecule has pIC50 no lower than 6: Cc1cc(-c2[nH]c3ccc(-c4cn5c(n4)CNCC5)cc3c2C(C)C)cc(C)n1
[reply] FALSE

[ask] Does CCc1c(-c2ccc(OC)c(OC)c2)[nH]c2ccc(-c3ccc(N4CCN(C)CC4)cc3)cc12 have a reported pIC50 of at least 6?
[reply] FALSE

[ask] Would you say CCc1c(-c2ccnc3[nH]ncc23)[nH]c2ccc(-c3ccc(N4CCN(C)CC4)cc3)cc12 shows pIC50 at minimum 6?
[reply] FALSE

[ask] Given Cc1cc(-c2[nH]c3ccc(-c4nc(C(=O)NCC5CCNC5)co4)cc3c2C(C)C)ccn1 (stereo not drawn) , state whether its pIC50 is at least 6.
[reply] FALSE

[ask] Does CC(C)c1c(-c2ccc3nccn3c2)[nH]c2ccc(-c3nnc(C(=O)NC4CCN(C(C)C)CC4)o3)cc12 have a reported pIC50 of at least 6?
[reply] TRUE

[ask] Is it the case that Cc1cc(-c2[nH]c3ccc(-c4nnc(C5CN6CCC5CC6)o4)cc3c2C(C)C)cc(C)n1 (stereo not drawn) [Example 297] has pIC50 reaching or exceeding 6?
[reply] TRUE

[ask] Reported pIC50 at or above 6? COc1ccc(-c2[nH]c3ccc(-c4ccc(-c5cccc(CN(C)C)c5)cc4)cc3c2C(C)C)cc1OC
[reply] FALSE

* * *

For each of the compounds below, state its pIC50.
- ASSAY SYSTEM: UniProtKB Q9NR97
- PROTOCOL DESCRIPTION: TLR8 inhibition reporter assay (HEK-Blue, SEAP)
- STATED CONDITIONS: HEK-Blue cells overexpressing human TLR8, R848 15.9 μM stimulation
Convention used: pIC50 is expressed as -log10 of the molar concentration.

[ask] Supply pIC50 value. Item: CCc1c(-c2ccnc(C)c2)[nH]c2ccc(-c3noc(C4CC5(CCNCC5)C4)n3)cc12
[reply] 7.14

[ask] State, in one line, measured pIC50 of COc1ccc(-c2[nH]c3ccc(-c4ccc(-c5cccc(CN(C)C)c5)cc4)cc3c2C(C)C)cc1OC
[reply] 6.50

[ask] Please give the documented pIC50 of COc1ccc(-c2[nH]c3ccc(-c4ccc(-c5cccnc5)cc4)cc3c2C(C)C)cc1OC
[reply] 5.65

[ask] Provide measured pIC50 value, entry: Cc1cc(-c2[nH]c3ccc(-c4nnc(N)o4)cc3c2C(C)C)cc(C)n1
[reply] 7.47

[ask] Identify measured pIC50 corresponding to Cc1cc(-c2[nH]c3ccc(-c4ccc(N5CCCC5)nc4)cc3c2C(C)C)cc(C)n1
[reply] 7.82

* * *

Provide the reported pIC50 of each item.
- ASSAY SYSTEM: human TLR8 (Homo sapiens (Human), UniProt Q9NR97)
- Sequence (Q9NR97 27-1041): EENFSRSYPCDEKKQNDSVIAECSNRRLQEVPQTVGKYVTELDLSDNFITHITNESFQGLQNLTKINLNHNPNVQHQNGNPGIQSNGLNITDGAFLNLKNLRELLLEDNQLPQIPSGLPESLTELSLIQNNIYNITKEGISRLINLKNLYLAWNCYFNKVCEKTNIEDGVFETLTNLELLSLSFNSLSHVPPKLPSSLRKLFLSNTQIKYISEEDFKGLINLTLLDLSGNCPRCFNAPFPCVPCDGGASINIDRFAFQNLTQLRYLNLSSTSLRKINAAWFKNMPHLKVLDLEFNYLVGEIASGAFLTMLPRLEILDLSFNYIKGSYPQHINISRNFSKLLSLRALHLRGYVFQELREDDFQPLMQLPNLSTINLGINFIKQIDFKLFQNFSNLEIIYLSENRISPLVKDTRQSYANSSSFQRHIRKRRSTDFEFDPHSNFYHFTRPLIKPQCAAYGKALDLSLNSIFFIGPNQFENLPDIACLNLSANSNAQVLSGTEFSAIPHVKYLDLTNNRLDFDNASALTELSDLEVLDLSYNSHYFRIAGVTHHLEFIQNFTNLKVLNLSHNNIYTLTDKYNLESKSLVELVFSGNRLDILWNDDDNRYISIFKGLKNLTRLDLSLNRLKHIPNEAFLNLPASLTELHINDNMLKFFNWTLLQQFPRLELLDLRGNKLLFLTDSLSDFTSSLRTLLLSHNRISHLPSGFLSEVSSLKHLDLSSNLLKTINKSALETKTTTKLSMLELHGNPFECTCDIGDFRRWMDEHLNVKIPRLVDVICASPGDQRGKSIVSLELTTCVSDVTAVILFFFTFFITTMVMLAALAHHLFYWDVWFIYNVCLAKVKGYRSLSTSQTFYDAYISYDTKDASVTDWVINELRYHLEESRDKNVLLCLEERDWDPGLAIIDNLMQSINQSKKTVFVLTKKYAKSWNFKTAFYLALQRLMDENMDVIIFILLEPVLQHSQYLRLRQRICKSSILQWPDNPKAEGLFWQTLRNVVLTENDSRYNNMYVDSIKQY
- PROTOCOL DESCRIPTION: TLR8 inhibition reporter assay (HEK-Blue, SEAP)
- STATED CONDITIONS: HEK-Blue cells overexpressing human TLR8, R848 15.9 μM stimulation
A value of pIC50 is the negative decimal logarithm of a concentration given in moles per litre.

[ask] Quickly give me recorded pIC50 for Cc1cc(-c2[nH]c3ccc(-c4ccc(N5CCN(C(C)C)CC5)nc4)cc3c2C(C)C)cc(C)n1 [Example 306]
[reply] 8.32

[ask] Return reported pIC50. Input compound: Cc1cc(-c2[nH]c3ccc(-c4nnc(C5CCCNC5)[nH]4)cc3c2C(C)C)cc(C)n1 (centres unmarked) [Example 323]
[reply] 8.00

[ask] Look up pIC50 of CC(C)c1c(-c2ccnc3[nH]ncc23)[nH]c2ccc(-c3c[nH]nc3C(F)(F)F)cc12 [Example 438] and report it.
[reply] 8.00

[ask] Look up and report measured pIC50 for this entry: Cc1cc(-c2[nH]c3ccc(-c4nc(C(=O)NCCCN(C)C)co4)cc3c2C(C)C)cc(C)n1 [Example 280]
[reply] 8.74

[ask] // Input: CNCCN1CCn2nc(-c3ccc4[nH]c(-c5ccnc(C)c5)c(C(C)C)c4c3)c(C(=O)NC)c2C1 [Example 219] . Output its pIC50 only.
[reply] 6.83

* * *

- ASSAY SYSTEM: human TLR8 (Homo sapiens (Human))
- PROTOCOL DESCRIPTION: TLR8 inhibition reporter assay (HEK-Blue, SEAP)
- STATED CONDITIONS: HEK-Blue cells overexpressing human TLR8, R848 15.9 μM stimulation
MEASURED PARAMETER: IC50
The answer consists of two parts: a number and, after it, its unit.

[ask] State, in one line, measured IC50 of COc1ccc(-c2[nH]c3ccc(-c4nnc(C(=O)N5CCC(N6CCOCC6)C5)o4)cc3c2C(C)C)cc1OC (centres unmarked) [Example 99]
[reply] 86 nM

[ask] # return recorded IC50 for input Cc1cc(-c2[nH]c3ccc(-c4nc5c(s4)CN(C(=O)C4CC(=O)N(C)C4)CC5)cc3c2C(C)C)cc(C)n1 (centres unmarked) [Example 364]
[reply] 11 nM

[ask] Provide IC50 value for the following molecule: COc1ccc(-c2[nH]c3ccc(-c4nnc(C5CCN(C(=O)CN(C)C)CC5)o4)cc3c2C(C)C)cc1OC [Example 3]
[reply] 13 nM

[ask] Return reported IC50. Input molecule: COc1ccc(-c2[nH]c3ccc(-c4cccc(C(=O)N5CCN(C(=O)C6CCCO6)CC5)c4)cc3c2CC(F)(F)F)cc1OC (centres unmarked) [Example 33]
[reply] 53 nM

[ask] State its IC50: COc1ccc(-c2[nH]c3ccc(-c4cnc(N5CCN(CCC(C)O)CC5)nc4)cc3c2C(C)C)cc1OC (centres unmarked) [Example 431]
[reply] 31 nM

[ask] Retrieve IC50 measured for Cc1cc(-c2[nH]c3ccc(-c4nnc(C5CN6CCC5CC6)o4)cc3c2C(C)C)ccn1 (centres unmarked) [Example 222] and print it.
[reply] 3.2 nM

[ask] Supply reported IC50 belonging to this molecule: COc1ccc(-c2[nH]c3ccc(-c4nnc(C5CCN(C(C)C)CC5)o4)cc3c2C(C)C)cc1OC [Example 4]
[reply] 9 nM

[ask] Give the measured IC50 for COc1ccc(-c2[nH]c3ccc(-c4nnc(CNCCNC(C)=O)o4)cc3c2C(C)C)cc1OC [Example 108]
[reply] 220 nM
